tested on: 521955-158-R6-J3-PDC complex spheroid growth, % test/control; experiment: Anticancer human tumor 521955-158-R6-J3-PDC patient-derived pancreatic carcinoma cell line growth inhibition [Asc]; conditions: second compound 0.1 µM; first compound 3 µM; stronger effect = lower value;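 further: spheroids exposed to compounds for 7 days; 100% = DMSO vehicle control wells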
Task for the reader: assign each of the following molecules its reported viability, T/C.

For every record below, what is its viability, T/C?
1. Cc1nc(N2CCC3(CC2)COC(C)C3N)c(CO)nc1Sc1ccnc(N)c1Cl (centres undefined) + CNC(C)C(=O)NC1CN(S(=O)(=O)c2cccc(S(=O)(=O)N3CCC4CCC(C(=O)NC(c5ccccc5)c5ccccc5)N4C(=O)C(NC(=O)C(C)NC)C3)c2)CCC2CCC(C(=O)NC(c3ccccc3)c3ccccc3)N2C1=O
2. Cc1nc(N2CCC3(CC2)COC(C)C3N)c(CO)nc1Sc1ccnc(N)c1Cl (centres undefined) + Cc1c(S(C)(=O)=O)c(-c2cc(F)cc(N3CCN(c4ccc(NS(=O)(=O)c5ccc(NC(CCN6CCC(C(=O)OCCCP(=O)(O)O)CC6)CSc6ccccc6)c(S(=O)(=O)C(F)(F)F)c5)cc4)CC3)c2)c(-c2ccc(Cl)cc2)n1C(C)C
3. CCN1C(C(=O)NC23CCC(C(=O)O)(CC2)CC3)C(c2cccc(Cl)c2F)C2(C(=O)Nc3cc(Cl)ccc32)C12CCCCC2 (centres undefined) + CNC(C)C(=O)NC1CN(S(=O)(=O)c2cccc(S(=O)(=O)N3CCC4CCC(C(=O)NC(c5ccccc5)c5ccccc5)N4C(=O)C(NC(=O)C(C)NC)C3)c2)CCC2CCC(C(=O)NC(c3ccccc3)c3ccccc3)N2C1=O
4. CCN1C(C(=O)NC23CCC(C(=O)O)(CC2)CC3)C(c2cccc(Cl)c2F)C2(C(=O)Nc3cc(Cl)ccc32)C12CCCCC2 (centres undefined) + Cc1c(S(C)(=O)=O)c(-c2cc(F)cc(N3CCN(c4ccc(NS(=O)(=O)c5ccc(NC(CCN6CCC(C(=O)OCCCP(=O)(O)O)CC6)CSc6ccccc6)c(S(=O)(=O)C(F)(F)F)c5)cc4)CC3)c2)c(-c2ccc(Cl)cc2)n1C(C)C

### Response
60.1%
39.9%
96.4%
50.8%
